B1: library; numbered along this chain (parent)
chain: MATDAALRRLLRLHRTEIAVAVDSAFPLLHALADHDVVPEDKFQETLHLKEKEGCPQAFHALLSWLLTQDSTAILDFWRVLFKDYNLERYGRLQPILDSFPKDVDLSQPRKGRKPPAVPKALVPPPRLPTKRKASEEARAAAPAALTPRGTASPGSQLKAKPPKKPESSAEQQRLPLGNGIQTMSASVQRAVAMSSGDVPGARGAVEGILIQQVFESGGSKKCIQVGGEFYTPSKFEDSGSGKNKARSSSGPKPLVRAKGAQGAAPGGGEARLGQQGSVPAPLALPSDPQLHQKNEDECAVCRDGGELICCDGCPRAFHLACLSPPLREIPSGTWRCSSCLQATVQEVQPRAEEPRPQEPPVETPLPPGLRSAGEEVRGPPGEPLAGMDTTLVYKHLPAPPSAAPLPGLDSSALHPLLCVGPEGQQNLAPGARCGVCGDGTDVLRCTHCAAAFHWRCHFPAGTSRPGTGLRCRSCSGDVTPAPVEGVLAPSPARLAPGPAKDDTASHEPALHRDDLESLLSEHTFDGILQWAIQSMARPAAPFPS

Variants of: B1
Experiment: AIRE transcriptional activation functional score (insulin promoter-GFP; nonsense median 0, synonymous median 1) (normalised score); higher = higher AIRE activity (more reporter activation)
Details: with insulin promoter-GFP reporter in HEK293
Param threshold (0.6) applies to AIRE transcriptional activation functional score; output TRUE when value >= threshold, FALSE when value < threshold.

variant_identifier: F77K
answer_label: FALSE
//
variant_identifier: G267E
answer_label: TRUE
//
variant_identifier: Q358F
answer_label: TRUE
//
variant_identifier: P483R
answer_label: TRUE
//
variant_identifier: G305T
answer_label: TRUE
//
variant_identifier: I224T
answer_label: FALSE
//
variant_identifier: V362T
answer_label: TRUE
//
variant_identifier: P422C
answer_label: TRUE
//
variant_identifier: A321N
answer_label: TRUE
//
variant_identifier: D304W
answer_label: TRUE
//
variant_identifier: S412Y
answer_label: TRUE
//
variant_identifier: P280T
answer_label: TRUE
//
variant_identifier: I209P
answer_label: FALSE
//
variant_identifier: T524L
answer_label: FALSE
//
variant_identifier: T390Y
answer_label: TRUE
//
variant_identifier: Q212V
answer_label: FALSE
//
variant_identifier: D238S
answer_label: TRUE
//
variant_identifier: G197H
answer_label: TRUE
//
variant_identifier: K395C
answer_label: FALSE
//
variant_identifier: S250Q
answer_label: FALSE
//
variant_identifier: L417S
answer_label: TRUE
//
variant_identifier: K50C
answer_label: FALSE
